- experimentalDetails: In vitro drug metabolism in rat liver extract
- Format: in vitro ADME, male Wistar rats
- particulars: pH 7.4; 15 min., rat liver extract, 37° C.; read-out: Residual amount of test compound, 15 min.
So basically: is remaining at 0.25 h under 80%? Then met. Not under? Then not met.

The following molecules have reported results that may help.
[[record]]
molecule = "COc1cc(-c2cnn3c(O)ncnc23)ccc1Sc1ccccc1 [Compound A3, reference compound]"
categorylabel = "met"

[[record]]
molecule = "COc1cc(-c2cnn3c(O)ncnc23)ccc1Cc1ccccc1 [Example 4]"
categorylabel = "met"

[[record]]
molecule = "COc1cccc(Cc2ccc(-c3cnn4c(O)ncnc34)cc2)c1 [Example 15]"
categorylabel = "met"

[[record]]
molecule = "COc1cccc(Cc2ccc(-c3cnn4c(O)ccnc34)cc2)c1 [Example 28]"
categorylabel = "met"

[[record]]
molecule = "CC(c1ccccc1)c1ccc(-c2cnn3c(O)ncnc23)cc1 (stereo not drawn) [Example 19]"
categorylabel = "not met"


Data request: Criterion: remaining at 0.25 h strictly below 80%. Is it met by COc1cccc(Cc2ccc(-c3cnn4c(O)ncnc34)cc2C)c1 [Example 10] ?
Data returned: met

Data request: API: query returns whether the molecule falls strictly under 80% in remaining at 0.25 h. Query: Cc1cccc(Cc2ccc(-c3cnn4c(O)ncnc34)cc2)c1 [Example 13]
Data returned: not met

Data request: Strictly below 80%: is that where remaining at 0.25 h of COc1cccc(Cc2ccc(-c3cnn4c(O)ncnc34)cc2OC)c1 [Example 11] sits?
Data returned: not met

Where do these numbers come from? They come from patent US5516777A.
